- Tested on: Calf thymus DNA
- Procedure Summary: DNA dissociation constant was determined from calf thymus
- Type: functional
- Condition Set: Bos taurus
So basically: Time constant T2 at 20 ms or higher? That is Satisfied. Lower than 20 ms? That is Not satisfied.

>>> label_value("CN(C)CCCCNC(=O)c1cccc2c(N)c3ccccc3nc12")
"Not satisfied"
>>> label_value("COc1ccc2c(N)c3cccc(C(=O)NCCN(C)C)c3nc2c1")
"Satisfied"
>>> label_value("Nc1c2ccccc2nc2c(C(=O)NCCN3CCOCC3)cccc12")
"Satisfied"

Exam item: decide whether the reported Time constant T2 for COc1cc(C(=O)NCCN(C)C)c2nc3ccccc3c(N)c2c1 is at least 20 ms. Satisfied

How about COc1ccc2nc3c(C(=O)NCCN(C)C)cccc3c(N)c2c1 ? Satisfied

How about COc1cccc2c(N)c3cccc(C(=O)NCCN(C)C)c3nc12 ? Satisfied

How about CN(C)CCNS(=O)(=O)c1cccc2c(N)c3ccccc3nc12 ? Satisfied

How about COc1ccc(C(=O)NCCN(C)C)c2nc3ccccc3c(N)c12 ? Satisfied
